# target.system: recombinant human HDAC6 (Homo sapiens, UniProt Q9UBN7)
# Sequence (Q9UBN7 1-1215): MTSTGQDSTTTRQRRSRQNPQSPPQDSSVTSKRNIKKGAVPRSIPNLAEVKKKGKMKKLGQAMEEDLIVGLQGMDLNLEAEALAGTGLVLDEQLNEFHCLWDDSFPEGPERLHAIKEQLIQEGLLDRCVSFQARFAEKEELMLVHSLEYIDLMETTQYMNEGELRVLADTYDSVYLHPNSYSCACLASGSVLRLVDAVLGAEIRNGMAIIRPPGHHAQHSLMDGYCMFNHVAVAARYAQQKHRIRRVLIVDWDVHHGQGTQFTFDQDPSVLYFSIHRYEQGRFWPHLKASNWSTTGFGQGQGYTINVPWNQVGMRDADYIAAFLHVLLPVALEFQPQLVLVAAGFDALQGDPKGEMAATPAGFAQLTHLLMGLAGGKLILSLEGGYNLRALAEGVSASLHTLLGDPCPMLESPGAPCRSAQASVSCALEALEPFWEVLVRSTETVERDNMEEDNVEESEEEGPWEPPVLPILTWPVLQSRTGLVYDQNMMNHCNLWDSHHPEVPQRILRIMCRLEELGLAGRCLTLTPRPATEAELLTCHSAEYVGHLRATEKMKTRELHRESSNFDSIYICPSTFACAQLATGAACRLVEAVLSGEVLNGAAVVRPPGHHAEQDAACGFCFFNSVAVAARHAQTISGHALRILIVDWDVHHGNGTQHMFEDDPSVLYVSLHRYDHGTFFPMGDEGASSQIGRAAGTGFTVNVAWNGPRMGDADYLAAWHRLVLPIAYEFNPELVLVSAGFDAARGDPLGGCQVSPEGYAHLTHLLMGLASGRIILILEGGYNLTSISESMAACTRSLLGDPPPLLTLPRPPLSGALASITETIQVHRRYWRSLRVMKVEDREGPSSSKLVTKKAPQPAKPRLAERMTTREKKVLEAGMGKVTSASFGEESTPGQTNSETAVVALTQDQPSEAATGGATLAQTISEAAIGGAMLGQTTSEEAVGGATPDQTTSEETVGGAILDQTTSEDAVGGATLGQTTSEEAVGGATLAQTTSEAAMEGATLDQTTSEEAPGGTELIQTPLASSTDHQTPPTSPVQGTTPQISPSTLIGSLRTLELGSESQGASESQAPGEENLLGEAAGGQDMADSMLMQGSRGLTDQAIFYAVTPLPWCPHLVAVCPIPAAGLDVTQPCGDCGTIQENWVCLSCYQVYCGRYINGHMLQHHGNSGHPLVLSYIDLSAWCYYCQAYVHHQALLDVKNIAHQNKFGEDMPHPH
# experiment: Caliper mobility shift deacetylase assay, HDAC6
# Type: biochemical
# condition.context: at the indicated concentration (8-40 μM); avg. n = 2; relative to DMSO
measured.property: HDAC6 % activation of deacetylase activity (%)

[
  {
    "compound": "CC(C)=CCC[C@]1(C)C=Cc2c(O)c3c(c(CC=C(C)C)c2O1)O[C@]12C(=C[C@@H]4C[C@H]1C(C)(C)O[C@@]2(C/C=C(/C)C(=O)O)C4=O)C3=O [gambogic acid]",
    "endpoint.unit": "%",
    "result": "−63"
  },
  {
    "compound": "COc1ccc(-c2cc(=O)c3c(O)cc(O)c(-c4cc(-c5cc(=O)c6c(O)cc(OC)cc6o5)ccc4OC)c3o2)cc1 [sciadopitysin]",
    "endpoint.unit": "%",
    "result": "−5"
  },
  {
    "compound": "CC1=NN(c2ccc(Br)cc2Br)C(=O)/C1=C(/C)NCc1ccccc1 [TAM-12]",
    "endpoint.unit": "%",
    "result": "−4"
  }
]
